Reference source: paper PMC13091788

Examples of molecules with documented Papp at 4 h, 30 μM follow.
- PROTOCOL NOTES: PAMPA assay
- Type: in vitro ADME
- CONDITION LABEL: donor/acceptor pH 7.4/7.4, 30 μM, 37 °C, 4 h, read-out: Membrane permeability pH7.4/7.4
PROPERTY: Papp at 4 h, 30 μM

>>> df
                                   molecule  endpoint_result
0  COc1ccc2cc3n(cc-2c1=O)CCc1cc2c(cc1-3)OCO2 [Q-BRB, quinoid-type berberrubine]   2.9 ×10⁻⁶ cm/s
1  COc1ccc2cc3[n+](cc2c1O)CCc1cc2c(cc1-3)OCO2 [AcA-BRB, berberrubine acetic acid adduct]   1.8 ×10⁻⁶ cm/s

* * *

- PROTOCOL NOTES: In vivo pharmacokinetics, single oral dose
- Design: species or system mouse
- CONDITION LABEL: male, C57BL/6 N, mouse, plasma; mice, single oral gavage 100 mg/kg
PROPERTY: AUC(0-inf) (ng·h/mL)

>>> df
                              sample_smiles  endpoint_result
0  COc1ccc2cc3n(cc-2c1=O)CCc1cc2c(cc1-3)OCO2             5110
1  COc1ccc2cc3[n+](cc2c1O)CCc1cc2c(cc1-3)OCO2             2130

* * *

- PROTOCOL NOTES: In vivo pharmacokinetics, single oral dose
- Parameters: species or system mouse
- CONDITION LABEL: male, C57BL/6 N, mouse, plasma; mice, single oral gavage 10 mg/kg
PROPERTY: half-life (h)

>>> print(df.to_string())
                              sample_smiles  readout_unit  endpoint_result
0  COc1ccc2cc3n(cc-2c1=O)CCc1cc2c(cc1-3)OCO2             h             1.49
1  COc1ccc2cc3[n+](cc2c1O)CCc1cc2c(cc1-3)OCO2             h             1.68
